The molecules listed here are annotated with their IC50.
runDescription: Antiproliferative activity against NHBE cells assessed as decrease in cell viability after 72 hrs by MTT assay
Assay type: ADME, cell-based
experimentalParameters: Homo sapiens
outcomeMeasure: IC50 (µM)

>>> df
                      structuresmilesstring  reportedresult
0  C=CC(=O)Nc1cccc(Nc2nc(Nc3ccc(/C=C/c4ccc(C)cc4C)cc3)ncc2F)c1            10.4
1  C=CC(=O)Nc1cccc(Nc2nc(Nc3ccc(/C=C/c4cc(C)cc(C)c4)cc3)ncc2Cl)c1              17
2  C=CC(=O)Nc1cccc(Nc2nc(Nc3ccc(/C=C/c4cc(OC)cc(OC)c4)cc3)ncc2Cl)c1            9.18
3  C=CC(=O)Nc1cccc(Nc2nc(Nc3ccc(/C=C/c4cc(Cl)cc(Cl)c4)cc3)ncc2Cl)c1            35.2
4  C=CC(=O)Nc1cccc(Nc2nc(Nc3ccc(/C=C/c4cc(C)cc(C)c4)cc3)ncc2F)c1            22.5

Each recorded value in this set is attributed to ChEMBL document CHEMBL4024721.
